B1: Haloalkane dehalogenase, D4Z2G1 (parent)
chain: MSLGAKPFGEKKFIEIKGRRMAYIDEGTGDPILFQHGNPTSSYLWRNIMPHCAGLGRLIACDLIGMGDSDKLDPSGPERYAYAEHRDYLDALWEALDLGDRVVLVVHDWGSALGFDWARRHRERVQGIAYMEAIAMPIEWADFPEQDRDLFQAFRSQAGEELVLQDNVFVEQVLPGLILRPLSEAEMAAYREPFLAAGEARRPTLSWPRQIPIAGTPADVVAIARDYAGWLSESPIPKLFINAEPGALTTGRMRDFCRTWPNQTEITVAGAHFIQEDSPDEIGAAIAAFVRRLRPA

variants of: B1; details: Sphingobium indicum (strain DSM 16413 / CCM 7287 / MTCC 6362 / UT26 / NBRC 101211 / UT26S); pH 7.5; Thermal; fluorescence; Na-Hepes 50 mM; reversible: no; structure 1MJ5; whole UniProt chain shown
measured_endpoint: Tm (°C)
Give your result in °C as a bare value.

Here's what some known entries look like.
# mutation_list, test_value
data = [
    ("V220M", 61),
    ("E139H", 61.5),
]

Proceeding to the next variant to report its Tm.
Req: Dear colleague, I am looking for the recorded Tm of the following variant: `T249V`
Resp: 60

Origin of measurements: FireProtDB (doi:10.1002/cbic.201402128)
